TARGET_OR_TEST_SYSTEM: MET (human) (UniProt P08581)
Sequence (P08581 whole entry, looked up): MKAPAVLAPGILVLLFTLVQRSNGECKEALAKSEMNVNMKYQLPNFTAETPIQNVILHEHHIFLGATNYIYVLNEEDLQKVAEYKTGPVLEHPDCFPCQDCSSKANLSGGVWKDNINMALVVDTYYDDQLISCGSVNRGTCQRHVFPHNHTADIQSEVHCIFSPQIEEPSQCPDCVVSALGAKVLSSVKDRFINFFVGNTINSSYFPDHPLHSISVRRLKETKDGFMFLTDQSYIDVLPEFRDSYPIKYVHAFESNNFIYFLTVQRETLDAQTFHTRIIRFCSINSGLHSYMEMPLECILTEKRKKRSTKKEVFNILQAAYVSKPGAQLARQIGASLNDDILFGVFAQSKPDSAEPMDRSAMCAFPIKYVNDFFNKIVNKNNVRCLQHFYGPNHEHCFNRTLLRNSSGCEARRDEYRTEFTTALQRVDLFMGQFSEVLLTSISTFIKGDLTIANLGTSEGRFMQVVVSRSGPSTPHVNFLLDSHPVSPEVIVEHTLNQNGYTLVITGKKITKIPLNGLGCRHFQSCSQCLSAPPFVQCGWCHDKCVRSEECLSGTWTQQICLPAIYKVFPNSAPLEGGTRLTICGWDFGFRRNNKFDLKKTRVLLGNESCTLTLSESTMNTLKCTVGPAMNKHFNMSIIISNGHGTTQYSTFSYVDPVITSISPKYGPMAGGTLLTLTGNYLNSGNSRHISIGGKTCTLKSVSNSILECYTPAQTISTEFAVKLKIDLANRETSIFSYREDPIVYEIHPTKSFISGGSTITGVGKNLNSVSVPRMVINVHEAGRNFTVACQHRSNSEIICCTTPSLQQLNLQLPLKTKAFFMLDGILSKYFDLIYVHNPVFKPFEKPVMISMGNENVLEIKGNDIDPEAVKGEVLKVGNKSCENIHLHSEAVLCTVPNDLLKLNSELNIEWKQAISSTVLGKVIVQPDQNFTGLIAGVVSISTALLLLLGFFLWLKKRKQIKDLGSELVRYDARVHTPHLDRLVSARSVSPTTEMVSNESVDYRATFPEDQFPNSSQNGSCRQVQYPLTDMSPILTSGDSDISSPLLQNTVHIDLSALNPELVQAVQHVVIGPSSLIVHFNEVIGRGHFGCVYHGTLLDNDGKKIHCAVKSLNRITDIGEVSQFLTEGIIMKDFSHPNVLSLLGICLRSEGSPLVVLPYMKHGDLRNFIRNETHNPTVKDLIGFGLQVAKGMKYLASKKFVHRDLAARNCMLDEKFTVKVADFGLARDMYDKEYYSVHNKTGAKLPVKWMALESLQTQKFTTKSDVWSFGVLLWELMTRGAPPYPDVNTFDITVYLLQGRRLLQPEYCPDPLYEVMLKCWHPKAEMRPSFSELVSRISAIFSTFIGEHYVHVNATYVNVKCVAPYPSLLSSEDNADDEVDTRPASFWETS
ASSAY_INFO: radiometric filter-binding kinase assay, Kinase HotSpot
EXPERIMENTAL_CONDITIONS: compound 0.5 µM; ATP 10 µM
Recorded residual activity values for a group of compounds are listed next.
Form entry: value (%) — number only.

O=c1c2ccccc2[nH]c(=S)n1CCN1CCC(=C(c2ccc(F)cc2)c2ccc(F)cc2)CC1    114
O=C(c1ccccc1)c1ccc(N2CCOCC2)cc1O    115
N#Cc1c(NC(=O)c2cccc3ccccc23)sc2c1CCCC2    109
CN[C@@H]1C[C@H]2O[C@@](C)([C@@H]1OC)n1c3ccccc3c3c4c(c5c6ccccc6n2c5c31)C(=O)NC4    32.7

API: the following record is the query input.
Return residual activity measured with MET (human) (UniProt P08581) given this compound: `COc1cc2c(cc1OC)-c1[nH]nc(Nc3cccc(F)c3)c1C2`
97.8
